# Assay text: Study VX-222-102 Part A: VX-222 for 3 days in HCV infected subjects (PK, safety)
# Format: in vivo, human
# Condition notes: human, in vivo, 500 mg, 500 mg b.i.d., Day 3, HCV infected subjects; read-out: C12 Geometric Mean
Measured attribute: concentration at 12 h (ng/mL)
The answer is to be given in ng/mL; state only the numeric part.

Incoming: Look up concentration at 12 h: CC1CCC(C(=O)N(c2cc(C#CC(C)(C)C)sc2C(=O)O)C2CCC(O)CC2)CC1 (stereo not shown)
Outgoing: 858

* * *

# Assay text: Study VX-222-102 Part A: VX-222 for 3 days in HCV infected subjects (PK, safety)
# Type: in vivo, human
# Condition notes: human, in vivo, 250 mg, 250 mg b.i.d., Day 3, HCV infected subjects; read-out: Cmax Geometric Mean
Measured attribute: Cmax (ng/mL)
The answer is to be given in ng/mL; state only the numeric part.

Incoming: Look up Cmax: CC1CCC(C(=O)N(c2cc(C#CC(C)(C)C)sc2C(=O)O)C2CCC(O)CC2)CC1 (stereo not shown)
Outgoing: 2960
